Please provide measured log10(IC50) for the entries that follow.
biological target: SOS1:KRAS (G12C) interaction (Homo sapiens (Human), UniProt Q07889); assay: SOS1 KRas(G12C) FRET Assay; conditions: 0.5 nM His10-SOS1 (res. 564-1049), 2.5 nM GST-KRAS G12C (res. 1-169), 2 hrs at RT
Sequence (Q07889 564-1049, stated change not applied): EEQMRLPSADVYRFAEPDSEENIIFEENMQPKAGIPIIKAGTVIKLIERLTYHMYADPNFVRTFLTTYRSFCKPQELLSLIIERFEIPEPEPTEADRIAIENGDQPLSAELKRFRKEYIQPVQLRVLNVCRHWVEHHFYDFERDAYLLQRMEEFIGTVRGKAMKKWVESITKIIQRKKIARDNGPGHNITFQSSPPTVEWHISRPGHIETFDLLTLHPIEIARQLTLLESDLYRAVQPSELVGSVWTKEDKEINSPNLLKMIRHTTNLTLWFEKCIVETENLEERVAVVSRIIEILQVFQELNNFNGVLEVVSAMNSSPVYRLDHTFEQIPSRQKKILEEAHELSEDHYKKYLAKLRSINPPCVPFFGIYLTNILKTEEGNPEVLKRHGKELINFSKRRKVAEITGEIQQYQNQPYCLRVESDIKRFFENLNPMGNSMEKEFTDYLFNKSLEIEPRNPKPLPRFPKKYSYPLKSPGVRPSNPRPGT
Recall that a logarithmic scale is used here: each number is log10 of IC50 in nM.

## Input Quick one: log10(IC50) of C[C@@H](NC(=O)c1cn(C23CC(C2)C3)c(=O)cc1N[C@H]1[C@@H]2CC[C@H]1CN(C)C2)c1cccc(C(F)F)c1F (single isomer, unassigned) ?
## Output 1.72

## Input And what about the molecule C[C@@H](NC(=O)c1cn(C2CC3(CC3)C2)c(=O)cc1N[C@H]1[C@@H]2CN(C)C[C@@H]21)c1cccc(C(F)F)c1F ?
## Output 0.92

## Input And what about the molecule C[C@@H](NC(=O)c1cn(C2(C(F)F)CC2)c(=O)cc1N[C@@H]1CCCn2cncc21)c1cccc(C(F)F)c1F (single isomer, unassigned) ?
## Output 1.75

## Input And what about the molecule C[C@@H](NC(=O)c1cn(C2(C(F)F)CC2)c(=O)cc1N[C@H]1CCN2CCC[C@H]2C1)c1cccc(C(F)F)c1F (single isomer, unassigned) ?
## Output 1.37

## Input And what about the molecule C[C@@H](NC(=O)c1cn(C2(C(F)F)CC2)c(=O)cc1N[C@H]1CN2CCC1CC2)c1cccc(C(F)F)c1F ?
## Output 1.41

## Input And what about the molecule Cc1c([C@@H](C)NC(=O)c2cn(C3CCOCC3)c(=O)cc2NC2(C)CCN(C)CC2)cccc1C(F)(F)F ?
## Output 1.58

## Input And what about the molecule C[C@@H](NC(=O)c1cn([C@H]2CC2(F)F)c(=O)cc1N[C@H]1[C@@H]2CN(C)C[C@@H]21)c1cccc(C(F)F)c1F ?
## Output 1.37

## Input And what about the molecule C[C@@H](NC(=O)c1cn(C2(C(F)F)CC2)c(=O)cc1N[C@H]1CCN(C)C2(CC2)C1)c1cccc(C(F)F)c1F (single isomer, unassigned) ?
## Output 0.99

## Input And what about the molecule C[C@@H](NC(=O)c1cn(C23CC(C2)C3)c(=O)cc1N[C@H]1[C@@H]2C[C@H]1CN(C)C2)c1cccc(C(F)F)c1F ?
## Output 1.80

## Input And what about the molecule Cc1c([C@@H](C)NC(=O)c2cn(C3CCOCC3)c(=O)cc2N[C@@H]2CCN(C)C2)cccc1C(F)(F)F ?
## Output 1.61

## Input And what about the molecule CCN1C[C@@H]2[C@H](C1)[C@H]2Nc1cc(=O)n(C2(C(F)F)CC2)cc1C(=O)N[C@H](C)c1cccc(C(F)F)c1F ?
## Output 1.49

## Input And what about the molecule C[C@@H](NC(=O)c1cn(C2CC3(C2)CC(F)(F)C3)c(=O)cc1N[C@H]1CCN(C)C[C@H]1F)c1cccc(C(F)F)c1F ?
## Output 0.48

## Input And what about the molecule C[C@@H](NC(=O)c1cn(C2(C)CN(C(=O)C3CC3)C2)c(=O)cc1NC1CCN(C)CC1)c1cccc(C(F)F)c1F ?
## Output -0.05

## Input And what about the molecule C[C@@H]1[C@@H](n2cc(C(=O)N[C@H](C)c3cccc(C(C)(F)F)c3F)c(N[C@H]3[C@@H]4CN(C)C[C@@H]43)cc2=O)C1(F)F (single isomer, unassigned) ?
## Output 0.74

## Input And what about the molecule C[C@@H](NC(=O)c1cn([C@H]2CC2(C)C)c(=O)cc1N[C@H]1[C@@H]2CN(C)C[C@@H]21)c1cccc(C(F)F)c1F ?
## Output 1.33

## Input And what about the molecule CC(C)n1cc(C(=O)N[C@H](C)c2cccc(C(F)F)c2F)c(N[C@H]2[C@@H]3CN(C)C[C@@H]32)cc1=O ?
## Output 1.81

## Input And what about the molecule Cc1c([C@@H](C)NC(=O)c2cn(C3CCOCC3)c(=O)cc2NC2CC3(C2)CN(C)C3)cccc1C(F)(F)F ?
## Output 1.73

## Input And what about the molecule C[C@@H](NC(=O)c1cn(C23CC(C2)C3)c(=O)cc1N[C@H]1CN2CCC1CC2)c1cccc(C(F)F)c1F ?
## Output 1.33

## Input And what about the molecule C[C@@H](NC(=O)c1cn(C2(C(F)F)CC2)c(=O)cc1N[C@H]1CCN(C)C[C@H]1F)c1cccc(C(F)F)c1F (single isomer, unassigned) [Example 68] ?
## Output 1.16

## Input And what about the molecule CNc1cc(=O)n(C2CCOCC2)cc1C(=O)N[C@H](C)c1cccc(C(F)(F)F)c1C ?
## Output 2.85

## Input And what about the molecule C[C@@H](NC(=O)c1cn(C2(C(F)F)CC2)c(=O)cc1N[C@@H]1C[C@@H]2C[C@H]1CN2C)c1cccc(C(F)F)c1F (single isomer, unassigned) ?
## Output 1.47

## Input And what about the molecule C[C@@H](NC(=O)c1cn(C2(C(F)F)CC2)c(=O)cc1NC1CCN(C)CC1)c1cccc(C(F)F)c1F ?
## Output 1.13

## Input And what about the molecule CC(=O)N1CC[C@@](C)(n2cc(C(=O)N[C@H](C)c3cccc(C(F)F)c3F)c(NC3CCN(C)CC3)cc2=O)C1 (single isomer, unassigned) ?
## Output 0.15

## Input And what about the molecule C[C@@H](NC(=O)c1cn(C2CCC2)c(=O)cc1N[C@@H]1[C@@H]2CC[C@H]1CN(C)C2)c1cccc(C(F)F)c1F (single isomer, unassigned) ?
## Output 1.83

----------
Please provide measured IC50 for the entries that follow.
target: SOS1:KRAS (G12C) interaction (Homo sapiens (Human)); experiment: SOS1 KRas(G12C) FRET Assay; conditions: 0.5 nM His10-SOS1 (res. 564-1049), 2.5 nM GST-KRAS G12C (res. 1-169), 2 hrs at RT
I only need the number, in nM, no unit after it.

## Input Quick one: IC50 of C[C@@H](NC(=O)c1cn([C@]23COC[C@H]2C3)c(=O)cc1NC1CCN(C)CC1)c1cccc(C(F)F)c1F ?
## Output 4.7

## Input And what about the compound C[C@@H](NC(=O)c1cn([C@]23COC[C@H]2C3)c(=O)cc1N[C@H]1[C@@H]2CN(C)C[C@@H]21)c1cccc(C(C)(F)F)c1F ?
## Output 13.3

## Input And what about the compound Cc1c([C@@H](C)NC(=O)c2cn(C3CCOCC3)c(=O)c(C#N)c2NC2CCN(C)CC2)cccc1C(F)(F)F ?
## Output 22.7

## Input And what about the compound C[C@@H](NC(=O)c1cn(C2(C(F)F)CC2)c(=O)cc1N[C@@H]1CCN(C)C[C@H]1F)c1cccc(C(F)F)c1F (single isomer, unassigned) ?
## Output 50.4

## Input And what about the compound C[C@@H](NC(=O)c1cn(C2CCC2)c(=O)cc1N[C@H]1[C@@H]2CN(C)C[C@@H]21)c1cccc(C(F)(F)F)c1F ?
## Output 9.3

## Input And what about the compound C[C@@H](NC(=O)c1cn([C@H]2C[C@@H]2C2CC2)c(=O)cc1NC1CCN(C)CC1)c1cccc(C(F)F)c1F (single isomer, unassigned) ?
## Output 13

----------
Biological target: SOS1:KRAS (G12C) interaction (Homo sapiens (Human))
Experiment: SOS1 KRas(G12C) FRET Assay
Details: 0.5 nM His10-SOS1 (res. 564-1049), 2.5 nM GST-KRAS G12C (res. 1-169), 2 hrs at RT
Protocol: Inhibition of the SOS 1:KRAS interaction was measured using purified GST-tagged KRAS (res. 1-169, G12C, purified based on Hillig, et al., Proc Natl Acad Sci USA (2019); 116(7):2551-2560) and recombinant His10-SOS1 (res. 564-1049; purified based on Hillig, et al.). […] Plates were incubated at RT for 2 hrs before the FRET signal was measured using Envision at emission 665 nm and 615 nm. […]
pIC50: −log10 of the molar value.
# if value of pIC50 reaches 7, tag Satisfied; if it stays below, tag Not satisfied

## Input Record Cc1c([C@@H](C)NC(=O)c2cn(C3CCOCC3)c(=O)cc2SC2CCNCC2)cccc1C(F)(F)F ; criterion: pIC50 no lower than 7. Met?
## Output Not satisfied

## Input And what about the compound Cc1c([C@@H](C)NC(=O)c2cn(C3CCOCC3)c(=O)cc2N[C@H]2CCN(C)C2)cccc1C(F)(F)F ?
## Output Satisfied

## Input And what about the compound C[C@@H](NC(=O)c1cn([C@H]2C[C@@H]2C)c(=O)cc1N[C@H]1[C@@H]2CN(C)C[C@@H]21)c1cccc(C(F)F)c1F (single isomer, unassigned) ?
## Output Satisfied

## Input And what about the compound C[C@@H](NC(=O)c1cn(C2(C(F)F)CC2)c(=O)cc1N[C@H]1CCNC[C@H]1F)c1cccc(C(F)F)c1F (single isomer, unassigned) ?
## Output Satisfied

## Input And what about the compound Cc1c([C@@H](C)NC(=O)c2cn(C3CCOCC3)c(=O)cc2NC2CCNCC2)cccc1C(F)(F)F ?
## Output Satisfied

## Input And what about the compound C[C@@H]1[C@@H](n2cc(C(=O)N[C@H](C)c3cccc(C(F)(F)F)c3F)c(N[C@H]3[C@@H]4CN(C)C[C@@H]43)cc2=O)C1(F)F (single isomer, unassigned) ?
## Output Satisfied
